Reference source for all entries: the supplement of paper PMC8975748

Tested on: Saccharomyces cerevisiae BY4741 SeMeCo community
assay: z-score of subpopulation abundance vs DMSO median, subpopulation auxotrophic for LM; higher = larger share of this subpopulation than in DMSO controls
test.context: 10 µM; 24 h; SM minimal medium; subpopulation (auxotrophy): LM
Where a name gives a salt, the structure may show the parent alone.
Assign T to entries whose z-score of subpopulation abundance meets or exceeds 0.09; assign F to the rest.

# molecule, assigned.label
measured = [
    ("CC1(C)S[C@@H]2[C@H](NC(=O)[C@H](C(=O)O)c3ccsc3)C(=O)N2[C@H]1C(=O)O [Ticarcillin sodium]", "T"),
    ("CC1=C(C(=O)O)N2C(=O)[C@@H](NC(=O)[C@H](N)c3ccc(O)cc3)[C@H]2SC1 [Cefadroxil hydrate]", "F"),
    ("O=C1CN(/N=C/c2ccc(-c3ccc([N+](=O)[O-])cc3)o2)C(=O)N1 [Dantrolene sodium]", "T"),
]

QUERY: Reported z-score of subpopulation abundance reaches at least 0.09 for CC(=O)N1CCN(c2ccc(OCC3COC(Cn4ccnc4)(c4ccc(Cl)cc4Cl)O3)cc2)CC1 (stereo not drawn) ?
RESULT: F

QUERY: Reported z-score of subpopulation abundance reaches at least 0.09 for O=C1Nc2ccccc2C1=O ?
RESULT: F

QUERY: Reported z-score of subpopulation abundance reaches at least 0.09 for CC(=O)[C@H]1CC[C@H]2[C@@H]3CCC4=CC(=O)CC[C@]4(C)[C@H]3CC[C@]12C ?
RESULT: F

QUERY: Reported z-score of subpopulation abundance reaches at least 0.09 for CCN[C@@H]1C[C@H](N)[C@@H](O[C@H]2OC(CN)=CC[C@H]2N)[C@H](O)[C@H]1O[C@H]1OC[C@](C)(O)[C@H](NC)[C@H]1O [Netilmicin Sulfate] ?
RESULT: T
